Where these numbers come from: paper PMC5540273

- System: EPHB2
- condition_description: concentration: 1 μM, replicates: in singlicate; n = 1;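 further: KINOMEscan kinase panel screen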

- compound: "Cc1ccc(NC(=O)c2ccc(Cl)c(Cl)c2)cc1-c1ccc(C(=O)Nc2ccncc2)cc1 [GSK1398460]"
  %Inh: "17%"
- compound: "Cc1cccc(Nc2nc(NCCN)ncc2C(N)=O)c1 [GSK1292139]"
  %Inh: "0%"
- compound: "Cn1cc(-c2cnc(N)c3c(-c4ccc5c(c4)CCN5C(=O)Cc4ccccc4)csc23)cn1 [GSK2593074]"
  %Inh: "2%"
- compound: "NCCC(NC(=O)c1cc(Br)c(-c2ccnc3[nH]ccc23)s1)c1ccccc1.O=C(O)C(F)(F)F.O=C(O)C(F)(F)F (centres unmarked) [GSK1307810]"
  %Inh: "0%"
- compound: "CN(C)CCOc1ccc(-c2cc(-c3ccc(Cl)c(O)c3)c(-c3ccncc3)[nH]2)cc1.Cl.Cl [SB-684387]"
  %Inh: "15%"
- compound: "N#CC1(c2cccc(C(=O)Nc3cccc(Oc4ccc5nc(NC(=O)C6CC6)sc5n4)c3)c2)CC1"
  %Inh: "100%"
- compound: "COC(=O)Nc1nc2cc(Oc3ccc(NC(=O)Nc4cccc(SC)c4)cc3)ccc2[nH]1.Cl [GW697999]"
  %Inh: "70%"
- compound: "Cl.Cl.NCC(NC(=O)c1cc(-c2cccnc2)c(-c2ccnc3[nH]ccc23)s1)c1ccccc1 (centres unmarked) [GSK1323434]"
  %Inh: "22%"
- compound: "Cl.O=C(Nc1ccc(Oc2ccc3[nH]c(NC(=O)c4ccco4)nc3c2)cc1)Nc1cc(C(F)(F)F)ccc1F [GW683134]"
  %Inh: "72%"
- compound: "CN(c1ccc(F)c(NC(=O)c2cccc(OC(C)(C)C#N)c2Cl)c1)c1ccc2nc(NC(=O)C3CC3)sc2n1"
  %Inh: "2%"
- compound: "Cc1cc(-c2ccnc(Nc3cccc(C#N)c3)n2)cc(C)c1O [GSK1440913]"
  %Inh: "19%"
- compound: "N#Cc1cnc2cc(-c3cnc(CNCCN4CCOCC4)s3)ccc2c1Nc1ccc(Oc2ccccc2)cc1 [GW664114]"
  %Inh: "7%"
- compound: "O=C(Nc1n[nH]c2nc(-c3cccc(O)c3)ccc12)C1CC1 [SB-711805]"
  %Inh: "0%"
- compound: "O=C(Nc1n[nH]c2nc(-c3ccccc3)ccc12)C1CC1 [SB-708999]"
  %Inh: "20%"
- compound: "Cc1cccc(Nc2nc(N[C@H]3CCCC[C@H]3N)ncc2C(N)=O)c1.Cl [GSK986310]"
  %Inh: "25%"
- compound: "O=C(Nc1n[nH]c2nc(-c3ccccc3O)ccc12)C1CC1 [SB-711880]"
  %Inh: "0%"
- compound: "c1ccc(Oc2ccc(Nc3ccnc4cc(-c5ccc(CN6CCCCC6)o5)ccc34)cc2)nc1 [GW567143]"
  %Inh: "0%"

* * *

// reported %Inh for each item listed
- Test system: TYK2(JH1domain-catalytic)
- condition_description: concentration: 1 μM, replicates: in singlicate; n = 1

- compound: "Nc1ncnc2scc(-c3ccc(NC(=O)Cc4cc(F)ccc4F)cc3)c12.O=C(O)C(F)(F)F [SB-731254-M]"
  tested_on: "TYK2(JH1domain-catalytic)"
  unit_string: "%"
  %Inh: 2
- compound: "CN(c1ccc2c(c1)nc(NCc1ccccc1)n2C)c1ccnc(Nc2ccc(CS(C)(=O)=O)cc2)n1.Cl [GW811603]"
  tested_on: "TYK2(JH1domain-catalytic)"
  unit_string: "%"
  %Inh: 40
- compound: "CCn1c(-c2nonc2N)nc2c(-c3ccccc3)ncc(OCCCN)c21.O=C(O)C(F)(F)F.O=C(O)C(F)(F)F [GSK260205]"
  tested_on: "TYK2(JH1domain-catalytic)"
  unit_string: "%"
  %Inh: 88
- compound: "CCOc1nccc(-c2c(-c3ccc(F)cc3)ncn2C2CCNCC2)n1 [SB-249175]"
  tested_on: "TYK2(JH1domain-catalytic)"
  unit_string: "%"
  %Inh: 45
- compound: "COc1ccc(NC(=O)c2ccoc2)cc1-c1ccc(C(=O)NCC2CC2)cc1 [GW810437]"
  tested_on: "TYK2(JH1domain-catalytic)"
  unit_string: "%"
  %Inh: 61
- compound: "CN(C)CCNS(=O)(=O)c1ccc(-c2ccnc3[nH]ccc23)cc1 [GSK977620]"
  tested_on: "TYK2(JH1domain-catalytic)"
  unit_string: "%"
  %Inh: 46
- compound: "CS(=O)(=O)c1cccc(CNc2nc(Nc3ccc4c(c3)CCC(=O)N4)ncc2C(F)(F)F)c1"
  tested_on: "TYK2(JH1domain-catalytic)"
  unit_string: "%"
  %Inh: 89
- compound: "Cc1ccc(NC(=O)c2cccc(N3CCCCC3)c2)cc1-c1ccc(C(=O)NCC2CC2)cc1 [GSK1917008]"
  tested_on: "TYK2(JH1domain-catalytic)"
  unit_string: "%"
  %Inh: 16

* * *

- System: MEK1
- Construct: gene MAP2K1
- condition_description: concentration: 1 μM, replicates: in singlicate; n = 1
Reported %Inh is given for each of the following compounds.

- compound: "CCNC(=O)/C=C/c1n[nH]c2cc(Sc3ccccc3C(=O)NC)ccc12"
  %Inh (%): 17
- compound: "COc1cccc(C2=C(Nc3cccc(O)c3)C(=O)NC2=O)c1"
  %Inh (%): 0
- compound: "Cc1cccc(Nc2nc(N[C@H]3CCCC[C@H]3N)ncc2C(N)=O)c1.Cl"
  %Inh (%): 8
- compound: "O=C(O)C(F)(F)F.O=c1[nH]ccc2nc(N[C@@H]3CCNC3)nc(Nc3ccc4c(c3)S(=O)(=O)CC4)c12"
  %Inh (%): 97.5
- compound: "Nc1cccc(-c2ccc3c(N)n[nH]c3c2)c1"
  %Inh (%): 53
- compound: "CN(c1ccc(NC(=O)Nc2cccc(Cl)c2)cc1)c1ccnc(N)n1.Cl"
  %Inh (%): 16
- compound: "Cl.Cl.NC(CNC(=O)c1cc(Br)c(-c2ccnc3[nH]ccc23)s1)c1ccccc1 (stereo not drawn)"
  %Inh (%): 0
- compound: "O=C(Nc1c(F)cccc1F)c1cc(C(=O)c2ccccc2F)c[nH]1"
  %Inh (%): 0
- compound: "CCn1cnc2c(NCc3ccccc3)ncnc21"
  %Inh (%): 20

* * *

- Test system: EPHA8
- condition_description: concentration: 1 μM, replicates: in singlicate; n = 1
observable: %Inh (%)

- molecule: "CN(c1ccc(NC(=O)Nc2cccc(Cl)c2)cc1)c1ccnc(N)n1.Cl"
  observable: "%Inh"
  measured: 22
- molecule: "CC(C)c1nc(-c2ccc(F)c(NS(=O)(=O)c3c(F)cccc3F)c2)c(-c2ccnc(Nc3ccc(N4CCOCC4)nc3)n2)s1"
  observable: "%Inh"
  measured: 70
- molecule: "CCn1cnc2c(NCc3ccccc3)ncnc21"
  observable: "%Inh"
  measured: 0
- molecule: "COC(=O)Nc1nc2ccc(Oc3ccc(NC(=O)Nc4cc(C(F)(F)F)ccc4F)cc3)cc2[nH]1.Cl"
  observable: "%Inh"
  measured: 99.6
- molecule: "COc1cccc2c(-c3ccncc3)c(-c3ccc(F)cc3)nn12"
  observable: "%Inh"
  measured: 3
- molecule: "Nc1cccc(-c2ccc3c(N)n[nH]c3c2)c1"
  observable: "%Inh"
  measured: 29
- molecule: "Cn1cc(-c2ccc3c(c2)CCN3C(=O)Cc2cc(F)cc(C(F)(F)F)c2)c2c(N)ncnc21"
  observable: "%Inh"
  measured: 2
- molecule: "COc1cccc(CC(=O)N2CCc3cc(-c4cn(C)c5ncnc(N)c45)ccc32)c1"
  observable: "%Inh"
  measured: 11
- molecule: "CN1CCN(Cc2ccc(NC(=O)Nc3ccc(N(C)c4ccnc(Nc5ccc(CS(C)(=O)=O)cc5)n4)cc3)cc2)CC1.Cl"
  observable: "%Inh"
  measured: 77
- molecule: "Fc1cc(Cl)ccc1Nc1ccnc2cc(-c3ccc(CN4CCSCC4)o3)ccc12"
  observable: "%Inh"
  measured: 72
- molecule: "Cl.Cl.NCC(NC(=O)c1cc(-c2cccnc2)c(-c2ccnc3[nH]ccc23)s1)c1ccccc1 (centres unmarked)"
  observable: "%Inh"
  measured: 33
- molecule: "Cc1ccc(C)c(NC(=O)Nc2ccc(C)c(-c3ccc(C(=O)Nc4ccncc4)cc3)c2)c1"
  observable: "%Inh"
  measured: 46
- molecule: "O=C(Nc1c(F)cccc1F)c1cc(C(=O)c2ccccc2F)c[nH]1"
  observable: "%Inh"
  measured: 0
- molecule: "COc1ccc(C2=C(Nc3cccc(O)c3)C(=O)NC2=O)cc1"
  observable: "%Inh"
  measured: 11
- molecule: "COc1cccc(C2=C(Nc3cccc(O)c3)C(=O)NC2=O)c1"
  observable: "%Inh"
  measured: 18
- molecule: "COc1cccc(-c2nc(-c3ccccc3)[nH]c2-c2ccncc2)c1"
  observable: "%Inh"
  measured: 25
- molecule: "Cc1nn2c(=O)cc(N3CCO[C@H](C)C3)nc2n1Cc1cccc(Cl)c1Cl"
  observable: "%Inh"
  measured: 2
